target: CDK2/Cyclin A (Homo sapiens, UniProt P24941); experiment: Enzymatic assay for CDK2 (LANCE Ultra kinase assay, FRET based); conditions: ATP at Km
pIC50: −log10 of the molar value.
observed.property: pIC50

// worked examples, pIC50 included
> print(dat)
                                   molecule  readout.value
1  C=C(F)C(=O)Nc1ccc2c(-c3ccccc3CNc3nc(N[C@H]4CC[C@@H](OC)C4)nc4c(C(C)C)cnn34)nccc2c1         < 6.00
2  CO[C@H]1CC[C@H](Nc2nc(NCc3c(C)cccc3-c3cc4cccc(NC(=O)/C=C/CN(C)C)c4[nH]3)n3ncc(C(C)C)c3n2)CC1         < 6.00
3  CC(C)c1cnn2c(NCc3ccccc3Oc3ccc(NC(=O)/C=C/CN(C)C)cc3)nc(N3CCC(N)CC3)nc12   6.00 to 7.00
4  C=C(F)C(=O)Nc1ccc2c(-c3ccccc3CNc3nc(NC[C@@H]4CCNC[C@@H]4O)nc4c(C(C)C)cnn34)nccc2c1         < 6.00
5  C=CC(=O)Nc1ccc2c(-c3ccccc3CNc3cc(N4C5CCC4CC(OC)C5)nc4c(C(C)C)cnn34)nccc2c1 (stereo not drawn)         < 6.00

Here is another molecule to look at.
Simply: C=C(F)C(=O)Nc1ccc2c(-c3ccccc3CNc3nc(N[C@H]4CC[C@H](NC)CC4)nc4c(C(C)C)cnn34)nccc2c1 , CDK2/Cyclin A (Homo sapiens, UniProt P24941), pIC50 = < 6.00
